- measurementProtocol: method code SF, from DOI: 10.1021/jf60167a006
assayReadout: logP

Q: // query logP value for entry `CCOP(=O)(OCC)Oc1ccc(S(C)(=O)=O)cc1`
Result: 0

###

Measured logP values are reported for all entries that follow.
I only need the number, thanks.

>  <mol>
COc1ccnnc1

>  <logP>
0.24

$$$$

Q: Report logP for `c1ccnnc1` please.
Result: -0.15

###

- measurementProtocol: method code SF, from DOI: 10.1016/s0378-5173(97)00352-9
assayReadout: logP

Q: Looking for the measured logP of `C/C(=C(/OCCOc1ccc(Cl)cc1)c1ccc(Cl)cc1Cl)n1ccnc1` , can you help?
Result: 5.76

###

- measurementProtocol: method code SF-AS, from DOI: 10.1021/jm00297a026, PMID: 5441130
assayReadout: logP
Please respond with just the number, no unit label.

Q: Please report the recorded logP for `CCCCn1cnc2c(N)ncnc21` .
Result: 1.25

###

logP values, listed per item
Answer with a number only.

Record excerpt, results attached:
>  <mol>
Brc1cc2c(cc1Br)Oc1cc(Br)c(Br)cc1O2

>  <logP>
6.5

$$$$
>  <mol>
Clc1cc2oc3c(Cl)cc(Cl)c(Cl)c3c2c(Cl)c1Cl

>  <logP>
6.82

$$$$
>  <mol>
Brc1cc2oc3cc(Br)c(Br)cc3c2cc1Br

>  <logP>
5.98

$$$$
>  <mol>
Brc1cc2oc3ccc(Br)c(Br)c3c2cc1Br

>  <logP>
6.2

$$$$
>  <mol>
Clc1cc2oc3cc(Cl)c(Cl)cc3c2cc1Cl

>  <logP>
5.83

$$$$

Q: Field request: logP | item: `Brc1cc2oc3cc(Br)c(Br)c(Br)c3c2cc1Br`
Result: 7.2

Q: So what does the record say about logP for `Brc1cc2oc3c(Br)c(Br)c(Br)cc3c2cc1Br` ?
Result: 7.04

###

- measurementProtocol: method code SF, from DOI: 10.1248/cpb.42.1525, PMID: 7923475
assayReadout: logP

Q: Record request: logP value, item `CCCC(=O)c1ccccc1`
Result: 2.66

###

- measurementProtocol: method code SF-FL, from DOI: 10.1016/0006-2952(96)00248-1, PMID: 8687500
assayReadout: logP
Keep it simple and answer with nothing but the number.

These recorded examples may help you get a feel for the data.
>  <mol>
COc1cccc2c1C(=O)c1c(O)c3c(c(O)c1C2=O)C[C@@](O)(C(C)=O)C[C@@H]3O[C@H]1C[C@H](NC(=O)OCc2ccc(NC(=O)[C@@H]3O[C@H](C(=O)O)[C@@H](O)[C@H](O)[C@H]3O)cc2)[C@H](O)[C@H](C)O1

>  <reportedValue>
-1.7

$$$$
>  <mol>
COc1cccc2c1C(=O)c1c(O)c3c(c(O)c1C2=O)C[C@@](O)(C(C)=O)C[C@@H]3O[C@H]1C[C@H](NC(=O)Cc2ccccc2NC(=O)[C@@H]2O[C@H](C(=O)O)[C@@H](O)[C@H](O)[C@H]2O)[C@H](O)[C@H](C)O1

>  <reportedValue>
-1.1

$$$$

Now look at this entry.
Q: Give its logP value. Item: `COc1cccc2c1C(=O)c1c(O)c3c(c(O)c1C2=O)C[C@@](O)(C(C)=O)C[C@@H]3O[C@H]1C[C@H](NC(=O)CCCNC(=O)[C@@H]2O[C@H](C(=O)O)[C@@H](O)[C@H](O)[C@H]2O)[C@H](O)[C@H](C)O1`
Result: -2

###

assayReadout: logP
Would you mind answering with just the numeric figure?

Q: Quick one: logP of `Clc1ccc2ccc(Cl)cc2c1` ?
Result: 4.81

###

Quick reference: logP of the listed items.
Respond using a number only.

>  <molecule>
COc1cc2nc(N(C)CCCNC(=O)C3CCCO3)nc(N)c2cc1OC (configuration not stated)

>  <logP>
1.93

$$$$

Read the next record carefully.
Q: Fill in: logP of COC(=O)C1=C(C)NC(C)=C(C(=O)OCC(C)C)C1c1cccc([N+](=O)[O-])c1 (configuration not stated) is ___
Result: 3.23

###

- measurementProtocol: method code SF-AS, from DOI: 10.1128/aac.27.1.84, PMID: 2580479
- conditions: pH 2.0
assayReadout: logD

Q: What value of measured logD is listed for `Cn1nnnc1SCC1=C(C(=O)O)N2C(=O)[C@@H](NC(=O)CSCC#N)[C@H]2SC1` ?
Result: -0.62

###

- measurementProtocol: method code SF-AS, from DOI: 10.1246/bcsj.63.3542
assayReadout: logP
Please state the value as a number alone, without comment.

Example cases with answers are listed next.
>  <mol>
CN(C)C(=O)c1ccccn1

>  <reportedValue>
-0.45

$$$$
>  <mol>
CNc1cnccn1

>  <reportedValue>
0.56

$$$$

Consider the additional molecule presented here.
Q: What does the record list as logP for `CN(C)C(=O)c1cnccn1` ?
Result: -0.8

###

- measurementProtocol: method code SF, from Dai, J-Y.; Han, S.; Wang, L. (2000). Prediction of partition properties of substituted benzaldehydes using different structural parameters. Zhongguo Huanjing Kexue (China Environmental Science), …
assayReadout: logP
Please reply with the number alone, leaving off any unit.

Worked examples, 2 compounds total:
>  <mol>
CCOc1ccc(C=O)cc1

>  <logP>
2.09

$$$$
>  <mol>
O=Cc1ccc(Br)cc1

>  <logP>
2.75

$$$$

Q: I would be grateful if you could share the reported logP for `CC(C)Oc1ccc(C=O)cc1` .
Result: 2.3

###

assayReadout: logP

Q: Please look up its logP: `CCCCCCCCCCCC(=O)N1CCCCCC1`
Result: 7.3

###

- conditions: pH 7.2
assayReadout: logD

Q: I would be grateful if you could share the reported logD for `N#CC(C#N)=NNc1cccc(O)c1` .
Result: 1.48

###

- measurementProtocol: method code SF-AS, from DOI: 10.1111/j.1476-5381.1975.tb07619.x, PMID: 1182339
- conditions: pH 10.0
Listed here: items and their measured logD.
Write the value as a bare number.

# count of solved cases: 3
>  <mol>
COc1cc(NC(=O)NC(=N)N)ccc1C#N

>  <reportedValue>
1.28

$$$$
>  <mol>
COc1ccc(NC(=O)NC(=N)N)cc1

>  <reportedValue>
0.56

$$$$
>  <mol>
N=C(N)NC(=O)Nc1cccc([N+](=O)[O-])c1

>  <reportedValue>
1.28

$$$$

Here's the next entry for you.
Q: Requested field: logD. Item: `N=C(N)NC(=O)Nc1ccc(Cl)c(Cl)c1`
Result: 2.39

###

logP for assorted compounds
- measurementProtocol: method code SF-NMR, from DOI: 10.1021/jm00157a023, PMID: 3806574

>  <compound>
CCOCCOCCOP(=S)(N1CC1(C)C)N1CC1(C)C (stereo not drawn)

>  <reportedValue>
0.47

$$$$
>  <compound>
S=P(N1CCOCCOCCOCCOCCOCC1)(N1CC1)N1CC1

>  <reportedValue>
0.75

$$$$

The record that follows has no logP shown yet.
Q: Endpoint output: logP of `CCOCCOCCOP(=S)(N1CC1)N1CC1` . Value?
Result: 0.38

###

- measurementProtocol: method code SF, from DOI: 10.1016/j.ejpb.2011.02.007, PMID: 21329757
assayReadout: logP
# answer = number (no unit)

Q: What measured logP goes with `C#C[C@]1(O)CC[C@H]2[C@@H]3CCC4=Cc5oncc5C[C@]4(C)[C@H]3CC[C@@]21C` ?
Result: 4.21

###

Item-by-item account of logP
- measurementProtocol: method code SF-AS, from DOI: 10.1021/jf970979g, PMID: 10554305

>  <compound>
CC(NC1=CC(=O)C(NC(C)C(O)c2ccccc2)=CC1=O)C(O)c1ccccc1 (configuration not stated)

>  <logP>
1.42

$$$$

Continue with the compound presented below.
Q: Which logP is reported for this compound? CC(NC1=CC(=O)C(NC(C)c2ccccc2)=CC1=O)c1ccccc1 (configuration not stated)
Result: 0.98

###

- measurementProtocol: method code SF-AS, from DOI: 10.1080/00021369.1974.10861343
- conditions: pH 3.0
assayReadout: logD
Please give the numeric answer without any surrounding text.

>  <mol>
O=C(O)/C=C/Oc1ccccc1

>  <assayReadout>
logD

>  <reportedValue>
2.27

$$$$

Now look at this one.
Q: What does the data say about its logD? Entry: `O=C(O)/C=C/Oc1ccccc1Cl`
Result: 2.69

###

# logP listing for each entry below
- measurementProtocol: method code SF, from DOI: 10.1248/yakushi1947.93.11_1452, PMID: 4273378
Reply with the value as a number alone.

>  <mol>
CCN(CC)C(=O)c1cccnc1

>  <logP>
0.86

$$$$

Q: Suppose we examine the compound `CCCCNC(=O)c1cccnc1` ; what logP value has been reported?
Result: 0.9

###

Respond with YES for logP values of 6 and above, NO for values below.

Reference set (3 entries):
>  <molecule>
CCCCCCCCCCCCCCCC(=O)OCC(COC(=O)C(C)c1ccc2cc(OC)ccc2c1)OC(=O)CCCCCCCCCCCCCCC (stereo not given)

>  <class>
YES

$$$$
>  <molecule>
CCCCCCCC/C=C\CCCCCCCC(=O)OCC(COC(=O)C(C)c1ccc2cc(OC)ccc2c1)OC(=O)CCCCCCC/C=C\CCCCCCCC (stereo not given)

>  <class>
YES

$$$$
>  <molecule>
CCCC(=O)OCC(COC(=O)C(C)c1ccc2cc(OC)ccc2c1)OC(=O)CCC (stereo not given)

>  <class>
NO

$$$$

Consider the additional molecule presented here.
Q: Reported logP reaches at least 6 for CCCCCC(=O)OCC(CCOC(=O)c1ccc2cc(OC)ccc2c1)OC(=O)CCCCC (stereo not given) ?
Result: NO
